Tested on: corn seeds
Assay: Corn seed germination experiment (seed soaking method, NYT 2061.1-2011)
Assay type: in vivo
Conditions: 0.02 ppm sample solution, seed soaking
QUANTITY: Germination rate % (%)
Just the number please, in %, no unit attached.

Previously resolved entries follow.
COMPOUND	RESULT VALUE
C=Cc1c(C)c2cc3nc(c4c5[nH]c(cc6nc(cc1[nH]2)C(C)=C6CC)c(C)c5C(=O)OC4=O)[C@@H](CCC(=O)O)[C@@H]3C	55
C=Cc1c(C)c2cc3nc(c4c5[nH]c(cc6nc(cc1[nH]2)C(C)=C6CC)c(C)c5C(=O)C4)[C@@H](CCC(=O)O)[C@@H]3C [Pyropheophorbide, pyropheophorbide]	58
C=Cc1c(C)c2cc3nc(c(C(=O)O)c4[nH]c(cc5nc(cc1[nH]2)C(C)=C5CC)c(C)c4C(=O)O)[C@@H](CCC(=O)O)[C@@H]3C	49
C=Cc1c(C)c2cc3nc(c4c5[nH]c(cc6nc(cc1[nH]2)C(C)=C6CC)c(C)c5C(=O)[C@@H]4C(=O)OC)[C@@H](CCC(=O)O)[C@@H]3C [Pheophorbide, pheophorbide]	57
C=Cc1c(C)c2cc3nc(c(CC(=O)O)c4[nH]c(cc5nc(cc1[nH]2)C(C)=C5CC)c(C)c4C(=O)O)[C@@H](CCC(=O)O)[C@@H]3C	58

QUERY: For the record C=Cc1c(C)c2cc3nc(c4c5[nH]c(cc6nc(cc1[nH]2)C(C)=C6CC)c(C)c5C(=O)OC4)C(CCC(=O)O)C3C (stereo not drawn) [15-hydroxymethyl rhodochlorin lactone] , what value of Germination rate % is listed for corn seeds?
RESULT: 60

QUERY: Could you share what Germination rate % was measured for C=Cc1c(C)c2cc3nc(c(CO)c4[nH]c(cc5nc(cc1[nH]2)C(C)=C5CC)c(C)c4C(=O)O)C(CCC(=O)O)C3C (stereo not drawn) [15-hydroxymethyl rhodochlorin] , tested on corn seeds?
RESULT: 58

QUERY: Form field - read-out: Germination rate %; system: corn seeds; submitted item: C=Cc1c(C)c2cc3nc(c(C)c4[nH]c(cc5nc(cc1[nH]2)C(C)=C5CC)c(C)c4C(=O)O)[C@@H](CCC(=O)O)[C@@H]3C
RESULT: 57

QUERY: Can you look up Germination rate % on corn seeds for C=Cc1c(C)c2cc3nc(c(C=O)c4[nH]c(cc5nc(cc1[nH]2)C(C)=C5CC)c(C)c4C(=O)O)[C@@H](CCC(=O)O)[C@@H]3C ?
RESULT: 52
